# tested target: Ybr033w (UniProt P38073)
# Sequence: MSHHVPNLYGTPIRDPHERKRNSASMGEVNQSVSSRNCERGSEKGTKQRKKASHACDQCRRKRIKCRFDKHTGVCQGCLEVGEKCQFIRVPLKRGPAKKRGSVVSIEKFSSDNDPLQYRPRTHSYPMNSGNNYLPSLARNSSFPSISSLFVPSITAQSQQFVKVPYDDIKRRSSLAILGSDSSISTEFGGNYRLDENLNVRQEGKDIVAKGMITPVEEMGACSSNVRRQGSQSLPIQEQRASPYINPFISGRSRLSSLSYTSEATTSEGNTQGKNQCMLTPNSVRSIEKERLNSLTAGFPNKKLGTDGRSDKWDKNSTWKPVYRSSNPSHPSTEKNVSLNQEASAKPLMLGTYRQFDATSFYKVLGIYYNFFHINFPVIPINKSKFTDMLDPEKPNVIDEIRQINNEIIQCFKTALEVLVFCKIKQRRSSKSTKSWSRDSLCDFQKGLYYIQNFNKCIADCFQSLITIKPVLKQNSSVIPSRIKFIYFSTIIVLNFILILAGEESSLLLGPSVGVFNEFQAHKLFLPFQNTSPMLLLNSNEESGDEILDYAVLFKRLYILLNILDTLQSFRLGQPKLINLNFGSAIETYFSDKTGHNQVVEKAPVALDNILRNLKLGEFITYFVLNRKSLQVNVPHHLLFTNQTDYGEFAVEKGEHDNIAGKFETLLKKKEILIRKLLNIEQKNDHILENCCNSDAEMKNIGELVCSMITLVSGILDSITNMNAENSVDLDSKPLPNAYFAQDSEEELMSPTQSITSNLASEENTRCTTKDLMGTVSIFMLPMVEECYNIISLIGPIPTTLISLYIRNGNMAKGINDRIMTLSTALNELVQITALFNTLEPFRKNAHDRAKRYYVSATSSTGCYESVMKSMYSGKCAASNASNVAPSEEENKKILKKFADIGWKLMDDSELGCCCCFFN
# assay notes: PBM E-score (8-mer binding enrichment) (E-score (-0.5 to 0.5)); higher = stronger / more preferred TF binding
# experimental conditions: protein concentration: 200 nM; construct: GST-full length
Whole data set: some 33,000 sequences, median “E-score (-0.5 to 0.5)” near -0.012, cut for the highest 2% near 0.29. The sample as a whole holds a higher share of the highest values than the screen did.
Heads up, the class ranges for PBM E-score are bucket A: < 0.09; bucket B: ≥ 0.09 and < 0.3; bucket C: ≥ 0.3

Worked set:
Class (by measured PBM E-score) for ACAAGTAT
bucket B

Let us now turn to AAATATTC
bucket C

Let us now turn to ATTTTCTC
bucket B

Now consider the entry below.
Class (by measured PBM E-score) for GAATATCC
bucket B

Values were extracted from the supplement of paper PMC3334620.
